- EXPERIMENTAL DETAILS: First-in-human single-dose study in healthy male subjects (NCT03869320)
- Assay type: in vivo
- TEST PARAMETERS: male, human, plasma; single oral doses >=10 mg, fasted
TEST READOUT: Tmax

Incoming: Requested read-out: Tmax. Entry: O=C(N[C@H]1CCN(CC2CC2)C[C@@H]1C(=O)NC1(c2ncccn2)CC1)c1cc(-c2ccc(F)cc2F)on1 [COMPOUND]
Outgoing: 1.3 to 3 h
